Target: T1, human serum albumin (human, UniProt P02768 25-609)
T1 construct: Negative control antigen in ELISA; also called HSA
T1 sequence (P02768 25-609 limits assumed): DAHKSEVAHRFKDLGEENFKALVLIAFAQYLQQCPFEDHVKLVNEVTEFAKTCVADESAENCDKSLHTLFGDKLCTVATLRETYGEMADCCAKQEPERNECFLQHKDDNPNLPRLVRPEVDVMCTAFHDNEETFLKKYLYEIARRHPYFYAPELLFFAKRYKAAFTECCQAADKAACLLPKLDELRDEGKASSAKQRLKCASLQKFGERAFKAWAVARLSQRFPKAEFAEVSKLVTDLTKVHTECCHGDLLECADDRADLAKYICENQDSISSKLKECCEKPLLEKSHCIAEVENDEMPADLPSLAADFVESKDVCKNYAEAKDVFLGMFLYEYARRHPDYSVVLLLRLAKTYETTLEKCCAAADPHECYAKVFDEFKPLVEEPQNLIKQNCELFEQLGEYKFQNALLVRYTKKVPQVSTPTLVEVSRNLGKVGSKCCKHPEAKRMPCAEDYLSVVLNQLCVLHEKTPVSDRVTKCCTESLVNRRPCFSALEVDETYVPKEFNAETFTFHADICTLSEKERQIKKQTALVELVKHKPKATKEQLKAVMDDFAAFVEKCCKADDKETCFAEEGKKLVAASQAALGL
Assay: ELISA, VNAR-hFc in Expi293 medium on coated HSA (negative control)
// returns not satisfied unless Binding [relative units] is strictly below 0.06 relative units, in which case satisfied

binder: E12 VNAR-hFc fusion (Fc fusion, Bivalent VNAR-Fc, VNAR N-terminal to human IgG1 Fc; Expi293; not shown: human IgG1 Fc (hinge, CH2, CH3) of vector pFUSE-hIgG1e3-Fc2) ARVDQTPQTITKEEGESLTINCVLRTQDPALASTSWYRKKSGSTREETISKGGRYVETVNSGSKSFSLRINDLTVEDSGTYRCNVYFLLAPTKTKLQGIDVYGDGTAVTVNA
group label: satisfied
//
binder: F1 VNAR-hFc fusion (Fc fusion, Bivalent VNAR-Fc, VNAR N-terminal to human IgG1 Fc; Expi293; also called Fl; not shown: human IgG1 Fc (hinge, CH2, CH3) of vector pFUSE-hIgG1e3-Fc2) ARVDQTPQTITKEEGESLTINCVLRVHGRALASTSWYRKKSGSTREETISKGGRYVETVNSGSKSFSLRINDLTVEDSGTYRCNVYGLSSGDIEGVKKIDVYGDGTAVTVNA
group label: not satisfied
//
binder: H7 VNAR-hFc fusion (Fc fusion, Bivalent VNAR-Fc, VNAR N-terminal to human IgG1 Fc; Expi293; not shown: human IgG1 Fc (hinge, CH2, CH3) of vector pFUSE-hIgG1e3-Fc2) ARVDQTPQTITKEEGESLTINCVLRYNNPALASTSWYRKKSGSTREETISKGGRYVETVNSGSKSFSLRINDLTVEDSGTYRCNVYFFPSFLVDKLQSHDVYGDGTAVTVNA
group label: not satisfied
//
binder: G3 VNAR-hFc fusion (Fc fusion, Bivalent VNAR-Fc, VNAR N-terminal to human IgG1 Fc; Expi293; not shown: human IgG1 Fc (hinge, CH2, CH3) of vector pFUSE-hIgG1e3-Fc2) ARVDQTPQTITKETGESLTINCVLRDNNCALSTTYWYRKKSGSTNEENISKGGRYVETVNSGSKSFSLRINDLTVEDSGTYRCKVHFFPSFCNSTSIRSVDVYGGGTVVTVNA
group label: satisfied
//
binder: D1 VNAR-hFc fusion (Fc fusion, Bivalent VNAR-Fc, VNAR N-terminal to human IgG1 Fc; Expi293; also called D1-hFc; not shown: human IgG1 Fc (hinge, CH2, CH3) of vector pFUSE-hIgG1e3-Fc2) ARVDQTPQTITKEEGESLTINCVLRHNYSALASTSWYRKKSGSTREETISKGGRYVETVNSGSKSFSLRINDLTVEDSGTYRCNVYGISFIEEKIRYDFDVYGDGTAVTVNA
group label: not satisfied

[Q] Confirm or reject: Binding [relative units] of F12 VNAR-hFc fusion (Fc fusion, Bivalent VNAR-Fc, VNAR N-terminal to human IgG1 Fc; Expi293; also called F12-hFc; clone F12; not shown: human IgG1 Fc (hinge, CH2, CH3) of vector pFUSE-hIgG1e3-Fc2) ARVDQTPQTITKEEGESLTINCVLRVHGRALASTSWYRKKSGSTREETISKGGRYVETVNSGSKSFSLRINDLTVEDSGTYRCNVYGLSFGDIEGVKKIDVYGDGTAVTVNA lies strictly below 0.06 relative units
[A] not satisfied

[Q] Please give the result for C6 VNAR-hFc fusion (Fc fusion, Bivalent VNAR-Fc, VNAR N-terminal to human IgG1 Fc; Expi293; not shown: human IgG1 Fc (hinge, CH2, CH3) of vector pFUSE-hIgG1e3-Fc2) ARVDQTPQTITKETGESLTINCVLRDSNCALSSTYWYRKKSGSTNEALISKGGRYVETVNSGSKSFSLRINDLTVEDSGTYRCNVVYDLRDDCFFRDVYGGGTAVTVNA too.
[A] satisfied

[Q] Please give the result for H12 VNAR-hFc fusion (Fc fusion, Bivalent VNAR-Fc, VNAR N-terminal to human IgG1 Fc; Expi293; not shown: human IgG1 Fc (hinge, CH2, CH3) of vector pFUSE-hIgG1e3-Fc2) ARVDQTPQTITKEEGESLTINCVLRVHGCALASTSWYRKKSGSTREETISKGGRYVETVNSGSKSFSLRINDLTVEDSGTYRCNVYGLSFVDIEGVKKIDVYGDGTAVTVNA too.
[A] satisfied
